system: Rabbit saphene vein; test: Non-endothelium-dependent relaxations in rabbit saphene vein; details: Oryctolagus cuniculus; rabbit saphene vein, contraction with KCl (60 mM); read-out: 50% effective relaxant concentration (IC50)
IC50 values by entry
Report the value in µM with no unit label.

molecule: O=C(O)CCc1cc(CCO[N+](=O)[O-])cc2c1CCC(NS(=O)(=O)c1ccc(Cl)cc1)C2 (centres unmarked)
IC50 / µM: 7.7

// next item, IC50 requested
Item: O=C(O)CCc1c(CCO[N+](=O)[O-])ccc2c1CCC(NS(=O)(=O)c1ccc(Cl)cc1)C2 (centres unmarked) | IC50: 10
